Taken from ChEMBL document CHEMBL2176953.

# test-target: Thymidylate kinase (Plasmodium falciparum (isolate 3D7))
# Sequence (Q8I4S1 whole entry): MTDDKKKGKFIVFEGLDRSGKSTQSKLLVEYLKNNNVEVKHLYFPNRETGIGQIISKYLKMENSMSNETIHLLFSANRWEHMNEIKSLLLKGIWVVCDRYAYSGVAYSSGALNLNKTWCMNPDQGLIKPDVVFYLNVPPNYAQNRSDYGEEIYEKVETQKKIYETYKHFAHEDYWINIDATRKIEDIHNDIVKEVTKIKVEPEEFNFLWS
# test-method-notes: Inhibition of recombinant Plasmodium falciparum TMPK using TMP as substrate by pyruvate kinase and lactate dehydrogenase enzyme coupled assay
Quick reference for Ki among some compounds
Give your result in µM as a bare value.

Example results:
1) Cc1cn([C@H]2C[C@H](O)[C@@H](CNC(=O)Nc3ccccc3Cl)O2)c(=O)[nH]c1=O ... 52
2) Cc1cn([C@H]2C[C@H](O)[C@@H](CNC(=S)Nc3ccc(Cl)c(C(F)(F)F)c3)O2)c(=O)[nH]c1=O ... 25
3) Cc1cn([C@@H]2C[C@H](O)[C@@H](CNC(=S)Nc3ccc(Br)cc3)O2)c(=O)[nH]c1=O ... 65

Please provide the recorded Ki for Cc1cn([C@@H]2C[C@H](O)[C@@H](CNC(=O)Nc3cccc(Cl)c3)O2)c(=O)[nH]c1=O , tested on Thymidylate kinase (Plasmodium falciparum (isolate 3D7)). 106

Query Cc1cn([C@H]2C[C@H](O)[C@@H](CNC(=O)c3ccc([N+](=O)[O-])cc3)O2)c(=O)[nH]c1=O next 302
